Data provenance is ChEMBL document CHEMBL4402559.

run_description: Intrinsic clearance in rat hepatocytes assessed per 10^-6 cells
Format: ADME, cell-based, Hepatocyte
metric_name: hepatocyte intrinsic clearance (µL/min)

# compound, metric_name, unit_name, observed_value
records = [
    ("C=CC(=O)N1CCN2c3c(cnc4cc(-c5c(C)ccc6[nH]ncc56)c(Cl)cc34)OCC[C@@H]2C1", "hepatocyte intrinsic clearance", "µL/min", 104),
    ("C=CC(=O)N1CCN2c3c(cnc4c(OC)c(-c5c(O)cccc5F)c(Cl)cc34)OC[C@H]2C1 (single isomer, unassigned; atropisomer 2)", "hepatocyte intrinsic clearance", "µL/min", 56),
    ("C=CC(=O)N1CCN2c3c(cnc4cc(-c5c(C)ccc6[nH]ncc56)c(Cl)cc34)OC[C@@H]2C1 (single isomer, unassigned; atropisomer 1)", "hepatocyte intrinsic clearance", "µL/min", 67),
    ("C=CC(=O)N1CCN2c3c(cnc4cc(-c5c(O)cccc5F)c(Cl)cc34)N(C)C(=O)[C@H]2C1", "hepatocyte intrinsic clearance", "µL/min", 7),
    ("C=CC(=O)N1C[C@@H]2COc3cnc4cc(-c5c(O)cccc5F)c(Cl)cc4c3N2C[C@H]1C", "hepatocyte intrinsic clearance", "µL/min", 42),
]
